Tested on: carrageenan-induced paw edema in rats
Assay: Anti-inflammatory activity, carrageenan-induced paw edema test
Type: in vivo
Conditions: 10 mg/kg oral, 2 h after carrageenan, mean ± SD (n = 6)
quantityKind: Percent anti-inflammatory activity (percent inhibition of paw edema) (%)

[[record]]
structuresmiles = "O=C1Nc2ccc(F)cc2C1=Nc1ccc(N=C2CCCCC2)cc1"
measurednumber = 55

[[record]]
structuresmiles = "CCC(C)=Nc1ccc(N=C2C(=O)Nc3ccc(F)cc32)cc1"
measurednumber = 52

[[record]]
structuresmiles = "O=C1Nc2ccc(F)cc2C1=Nc1ccc(N=Cc2ccc(O)cc2)cc1"
measurednumber = 54

[[record]]
structuresmiles = "CC(=Nc1ccc(N=C2C(=O)Nc3ccc(F)cc32)cc1)c1ccccc1"
measurednumber = 52

[[record]]
structuresmiles = "O=C1Nc2ccc(F)cc2C1=Nc1ccc(N=Cc2ccc(Cl)cc2)cc1"
measurednumber = 48


---

Tested on: carrageenan-induced paw edema in rats
Experiment: Anti-inflammatory activity, carrageenan-induced paw edema test
Type: in vivo
Conditions: 20 mg/kg oral, 1 h after carrageenan, mean ± SD (n = 6)
Method: The synthesized compounds were evaluated for analgesic, anti-inflammatory, and ulcerogenic index. […] Anti-inflammatory activity was evaluated by carrageenan-induced paw edema test in rats.[15] […] The paw volumes were measured using the mercury displacement technique with the help of a plethysmograph (Model PLYAN; Buxco, USA) immediately before and 30 min, 1, 2, and 3 h after carrageenan injection. The percent inhibition of paw edema was calculated using the following formula. […]
A collection of molecules and their measured Percent anti-inflammatory activity (percent inhibition of paw edema)
quantityKind: Percent anti-inflammatory activity (percent inhibition of paw edema)

[[record]]
molecule = "CCC(CC)=Nc1ccc(N=C2C(=O)Nc3ccc(F)cc32)cc1 [Compound N2]"
target = "carrageenan-induced paw edema in rats"
result = "57 ± 1.72 %"

[[record]]
molecule = "O=C1Nc2ccc(F)cc2C1=Nc1ccc(N=Cc2ccc(Cl)cc2)cc1 [Compound N9]"
target = "carrageenan-induced paw edema in rats"
result = "51 ± 1.46 %"

[[record]]
molecule = "CCC(C)=Nc1ccc(N=C2C(=O)Nc3ccc(F)cc32)cc1 [Compound N1]"
target = "carrageenan-induced paw edema in rats"
result = "52 ± 1.96 %"

[[record]]
molecule = "CCCC(C)=Nc1ccc(N=C2C(=O)Nc3ccc(F)cc32)cc1 [Compound N3]"
target = "carrageenan-induced paw edema in rats"
result = "62 ± 1.77 %"

[[record]]
molecule = "O=C(O)Cc1ccccc1Nc1c(Cl)cccc1Cl [Diclofenac, Diclofenac sodium, reference compound]"
target = "carrageenan-induced paw edema in rats"
result = "52 ± 0.96 %"

[[record]]
molecule = "O=C1Nc2ccc(F)cc2C1=Nc1ccc(N=C2CCCCC2)cc1 [Compound N4]"
target = "carrageenan-induced paw edema in rats"
result = "56 ± 1.83 %"

[[record]]
molecule = "O=C1Nc2ccc(F)cc2C1=Nc1ccc(N=Cc2ccc(O)cc2)cc1 [Compound N10]"
target = "carrageenan-induced paw edema in rats"
result = "54 ± 1.65 %"

[[record]]
molecule = "CC(=Nc1ccc(N=C2C(=O)Nc3ccc(F)cc32)cc1)c1ccccc1 [Compound N5]"
target = "carrageenan-induced paw edema in rats"
result = "54 ± 1.95 %"

[[record]]
molecule = "O=C1Nc2ccc(F)cc2C1=Nc1ccc(N=Cc2ccc([N+](=O)[O-])cc2)cc1 [Compound N8]"
target = "carrageenan-induced paw edema in rats"
result = "52 ± 1.92 %"

[[record]]
molecule = "COc1ccc(C=Nc2ccc(N=C3C(=O)Nc4ccc(F)cc43)cc2)cc1 [Compound N7]"
target = "carrageenan-induced paw edema in rats"
result = "55 ± 1.78 %"

[[record]]
molecule = "O=C1Nc2ccc(F)cc2C1=Nc1ccc(N=Cc2ccccc2)cc1 [Compound N6]"
target = "carrageenan-induced paw edema in rats"
result = "55 ± 1.76 %"


---

Attribute: Percent anti-inflammatory activity (percent inhibition of paw edema)
Test system: carrageenan-induced paw edema in rats
Test: Anti-inflammatory activity, carrageenan-induced paw edema test
Assay type: in vivo
Settings: 10 mg/kg oral, 3 h after carrageenan, mean ± SD (n = 6)
quantityKind: Percent anti-inflammatory activity (percent inhibition of paw edema) (%)

[[record]]
compound = "CCCC(C)=Nc1ccc(N=C2C(=O)Nc3ccc(F)cc32)cc1 [Compound N3]"
measurednumber = 43

[[record]]
compound = "O=C1Nc2ccc(F)cc2C1=Nc1ccc(N=Cc2ccc(Cl)cc2)cc1 [Compound N9]"
measurednumber = 38

[[record]]
compound = "CC(=Nc1ccc(N=C2C(=O)Nc3ccc(F)cc32)cc1)c1ccccc1 [Compound N5]"
measurednumber = 32

[[record]]
compound = "COc1ccc(C=Nc2ccc(N=C3C(=O)Nc4ccc(F)cc43)cc2)cc1 [Compound N7]"
measurednumber = 33

[[record]]
compound = "O=C1Nc2ccc(F)cc2C1=Nc1ccc(N=Cc2ccc(O)cc2)cc1 [Compound N10]"
measurednumber = 39

[[record]]
compound = "CCC(CC)=Nc1ccc(N=C2C(=O)Nc3ccc(F)cc32)cc1 [Compound N2]"
measurednumber = 45

[[record]]
compound = "O=C1Nc2ccc(F)cc2C1=Nc1ccc(N=Cc2ccccc2)cc1 [Compound N6]"
measurednumber = 36

[[record]]
compound = "O=C(O)Cc1ccccc1Nc1c(Cl)cccc1Cl [Diclofenac, Diclofenac sodium, reference compound]"
measurednumber = 33

[[record]]
compound = "CCC(C)=Nc1ccc(N=C2C(=O)Nc3ccc(F)cc32)cc1 [Compound N1]"
measurednumber = 32

[[record]]
compound = "O=C1Nc2ccc(F)cc2C1=Nc1ccc(N=C2CCCCC2)cc1 [Compound N4]"
measurednumber = 35

[[record]]
compound = "O=C1Nc2ccc(F)cc2C1=Nc1ccc(N=Cc2ccc([N+](=O)[O-])cc2)cc1 [Compound N8]"
measurednumber = 36


---

Parameter Percent analgesic activity: see the listing below.
Test system: Wistar albino mice
Assay: Analgesic activity, tail-flick technique
Type: in vivo
Details: 20 mg/kg oral, 3 h after treatment, mean ± SD (n = 6)
quantityKind: Percent analgesic activity (%)

[[record]]
compound = "O=C1Nc2ccc(F)cc2C1=Nc1ccc(N=Cc2ccc([N+](=O)[O-])cc2)cc1"
measurednumber = 39

[[record]]
compound = "COc1ccc(C=Nc2ccc(N=C3C(=O)Nc4ccc(F)cc43)cc2)cc1"
measurednumber = 44

[[record]]
compound = "O=C1Nc2ccc(F)cc2C1=Nc1ccc(N=Cc2ccccc2)cc1"
measurednumber = 43

[[record]]
compound = "CCCC(C)=Nc1ccc(N=C2C(=O)Nc3ccc(F)cc32)cc1"
measurednumber = 52

[[record]]
compound = "CC(=Nc1ccc(N=C2C(=O)Nc3ccc(F)cc32)cc1)c1ccccc1"
measurednumber = 42

[[record]]
compound = "O=C1Nc2ccc(F)cc2C1=Nc1ccc(N=C2CCCCC2)cc1"
measurednumber = 44

[[record]]
compound = "O=C1Nc2ccc(F)cc2C1=Nc1ccc(N=Cc2ccc(O)cc2)cc1"
measurednumber = 42

[[record]]
compound = "O=C1Nc2ccc(F)cc2C1=Nc1ccc(N=Cc2ccc(Cl)cc2)cc1"
measurednumber = 45

[[record]]
compound = "CCC(C)=Nc1ccc(N=C2C(=O)Nc3ccc(F)cc32)cc1"
measurednumber = 47

[[record]]
compound = "CCC(CC)=Nc1ccc(N=C2C(=O)Nc3ccc(F)cc32)cc1"
measurednumber = 50

[[record]]
compound = "O=C(O)Cc1ccccc1Nc1c(Cl)cccc1Cl [Diclofenac, Diclofenac sodium, reference compound]"
measurednumber = 39


---

Listing of entries alongside the reported Percent analgesic activity.
Test system: Wistar albino mice
Assay: Analgesic activity, tail-flick technique
Type: in vivo
Conditions: 10 mg/kg oral, 3 h after treatment, mean ± SD (n = 6)
quantityKind: Percent analgesic activity (%)

[[record]]
compound = "CCC(C)=Nc1ccc(N=C2C(=O)Nc3ccc(F)cc32)cc1"
measurednumber = 31

[[record]]
compound = "O=C1Nc2ccc(F)cc2C1=Nc1ccc(N=Cc2ccccc2)cc1"
measurednumber = 36

[[record]]
compound = "CC(=Nc1ccc(N=C2C(=O)Nc3ccc(F)cc32)cc1)c1ccccc1"
measurednumber = 32

[[record]]
compound = "CCCC(C)=Nc1ccc(N=C2C(=O)Nc3ccc(F)cc32)cc1"
measurednumber = 46

[[record]]
compound = "COc1ccc(C=Nc2ccc(N=C3C(=O)Nc4ccc(F)cc43)cc2)cc1"
measurednumber = 29

[[record]]
compound = "CCC(CC)=Nc1ccc(N=C2C(=O)Nc3ccc(F)cc32)cc1"
measurednumber = 45

[[record]]
compound = "O=C1Nc2ccc(F)cc2C1=Nc1ccc(N=Cc2ccc(Cl)cc2)cc1"
measurednumber = 38

[[record]]
compound = "O=C1Nc2ccc(F)cc2C1=Nc1ccc(N=Cc2ccc(O)cc2)cc1"
measurednumber = 38

[[record]]
compound = "O=C1Nc2ccc(F)cc2C1=Nc1ccc(N=Cc2ccc([N+](=O)[O-])cc2)cc1"
measurednumber = 36

[[record]]
compound = "O=C1Nc2ccc(F)cc2C1=Nc1ccc(N=C2CCCCC2)cc1"
measurednumber = 35

[[record]]
compound = "O=C(O)Cc1ccccc1Nc1c(Cl)cccc1Cl [Diclofenac, Diclofenac sodium, reference compound]"
measurednumber = 33


Ref: paper PMC3021692
